Target: BAP-tagged AMPK α1β1γ1 (Homo sapiens, UniProt P54619+Q13131+Q9Y478)
Construct: Recombinant full-length AMPK heterotrimeric complexes α1β1γ1, α1β2γ1, α1β2γ3, α2β1γ1, α2β2γ1 and α2β2γ3 were cloned; 6X-His (N); AviTag (BAP); made in house; host or cells: E. coli (co-expressed with BirA)
Sequence (Q13131 whole entry): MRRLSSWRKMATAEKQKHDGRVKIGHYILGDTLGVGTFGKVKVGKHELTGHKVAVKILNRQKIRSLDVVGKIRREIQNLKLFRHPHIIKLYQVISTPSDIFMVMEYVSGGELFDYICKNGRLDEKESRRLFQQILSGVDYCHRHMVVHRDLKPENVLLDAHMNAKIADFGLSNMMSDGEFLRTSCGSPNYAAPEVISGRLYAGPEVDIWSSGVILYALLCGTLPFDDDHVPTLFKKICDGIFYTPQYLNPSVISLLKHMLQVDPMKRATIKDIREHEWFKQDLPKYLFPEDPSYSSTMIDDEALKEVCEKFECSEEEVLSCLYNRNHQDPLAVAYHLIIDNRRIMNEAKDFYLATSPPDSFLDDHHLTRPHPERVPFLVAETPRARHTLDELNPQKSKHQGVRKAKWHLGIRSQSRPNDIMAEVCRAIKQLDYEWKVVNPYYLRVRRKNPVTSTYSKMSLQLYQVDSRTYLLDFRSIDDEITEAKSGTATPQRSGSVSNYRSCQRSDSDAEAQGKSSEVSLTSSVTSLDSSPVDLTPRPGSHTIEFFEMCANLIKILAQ
Sequence (Q9Y478 whole entry): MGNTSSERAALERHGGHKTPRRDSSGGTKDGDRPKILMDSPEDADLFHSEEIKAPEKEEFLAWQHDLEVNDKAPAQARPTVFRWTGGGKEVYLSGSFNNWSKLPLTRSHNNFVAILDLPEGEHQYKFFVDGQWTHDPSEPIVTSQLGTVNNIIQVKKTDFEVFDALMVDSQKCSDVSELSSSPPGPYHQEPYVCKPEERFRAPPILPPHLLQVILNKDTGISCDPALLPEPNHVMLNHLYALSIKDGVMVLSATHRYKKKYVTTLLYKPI
Sequence (P54619 whole entry): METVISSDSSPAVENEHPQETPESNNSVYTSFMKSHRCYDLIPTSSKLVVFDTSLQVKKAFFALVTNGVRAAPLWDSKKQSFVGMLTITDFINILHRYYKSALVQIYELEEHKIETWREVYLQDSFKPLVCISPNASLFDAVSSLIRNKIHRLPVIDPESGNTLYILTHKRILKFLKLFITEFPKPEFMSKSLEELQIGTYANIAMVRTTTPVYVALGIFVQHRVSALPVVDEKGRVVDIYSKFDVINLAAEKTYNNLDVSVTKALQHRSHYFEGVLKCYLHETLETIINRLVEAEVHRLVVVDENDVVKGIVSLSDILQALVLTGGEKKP
Experiment: SPR direct binding (Biacore)
Settings: in the presence of 150 μM AMP, n=1, read-out: KD
MEASURED_PROPERTY: pKd
Numbers only, as −log10 of the molar value.

Asked: Item under review: N#Cc1c(O)c2c(-c3ccc(-c4ccccc4O)cc3)csc2[nH]c1=O [A769662] . Reported pKd?
Given back: 7.52
